The entries below are paired with their reported Vd.
Experiment: Volume of distribution at steady state in rat at 1 mg/kg, iv
Type: ADME, organism-based
Design: dose 1 mg/kg, route intravenous
Details: in vivo, read-out: Vdss
Please reply with the bare figure in L/kg and do not write the unit itself.

INSERT INTO results (smi, u, endpoint_result) VALUES
  ('Cc1cn(-c2cc(NC(=O)c3cccc(-c4ccc5nc(NC(=O)C6CC6)sc5n4)c3)cc(C(F)(F)F)c2)cn1', 'L/kg', 1.7);

In the following, a different molecule is considered.
Name the recorded Vd for "CCN1CCN(Cc2ccc(NC(=O)c3cccc(-c4ccc5nc(NC(=O)C6CC6)sc5n4)c3)cc2C(F)(F)F)CC1" . 6.5
